Assay: qHTS profiling of the MIPE4 collection as inhibitors of Plasmodium falciparum (DD2) proliferation (AID 743345)
Settings: P. falciparum Dd2 in erythrocytes, SYBR Green DNA, 72 h; at 28.5 µM (top of the series) unless noted
Examples of molecules with documented parasite growth remaining, % of DMSO control (lower = more inhibition) follow.
Respond with the bare value in %.

Worked examples follow.
{"MOLECULE": "COc1cc(N2CCC(N3CCN(C)CC3)CC2)ccc1Nc1ncc(Cl)c(Nc2ccccc2S(=O)(=O)C(C)C)n1", "MEASURE_UNIT": "%", "OBSERVED_RESULT": 7.75}
{"MOLECULE": "CO[C@H]1C[C@@H]2CC[C@@H](C)[C@@](O)(O2)C(=O)C(=O)N2CCCC[C@@H]2C(=O)O[C@H]([C@H](C)C[C@@H]2CC[C@H](OC(=O)C(C)(CO)CO)[C@H](OC)C2)CC(=O)[C@H](C)C=C(C)[C@@H](O)[C@@H](OC)C(=O)[C@H](C)C[C@H](C)C=CC=CC=C1C", "MEASURE_UNIT": "%", "OBSERVED_RESULT": 6.2}
{"MOLECULE": "N#CC(=C(N)Sc1ccccc1N)C(C#N)=C(N)Sc1ccccc1N", "MEASURE_UNIT": "%", "OBSERVED_RESULT": 12.1}
{"MOLECULE": "O=C(OCC#CCSc1nnc(-c2cccc3ccccc23)o1)c1cc2ccccc2s1", "MEASURE_UNIT": "%", "OBSERVED_RESULT": 83}
{"MOLECULE": "CCn1c(C(=O)N(C2CC2)C2CC2)cc2c3c(ncn3C)c(Nc3cc(C)n(C)n3)nc21", "MEASURE_UNIT": "%", "OBSERVED_RESULT": 12.4}
{"MOLECULE": "CC(C)=CC[C@@H](O)C1=CC(=O)c2c(O)ccc(O)c2C1=O", "MEASURE_UNIT": "%", "OBSERVED_RESULT": 5.8}

Now examine the next entry.
Output parasite growth remaining, % of DMSO control (lower = more inhibition) of COc1ccc(C2CC(c3ccccc3)=NN2c2ccc(S(N)(=O)=O)cc2)cc1 (stereo not drawn)
99.9

----------
Assay: P-glycoprotein substrates identified in KB-3-1 adenocarcinoma cell line, qHTS therapeutic library screen (AID 1346986); note: nearly all actives have a fitted effect of over 60% in size
Conditions: KB-3-1 parental cells viability, CellTiter-Glo, 72 h; series mostly up to 44.5 µM
Results filed as inconclusive are left out. Activity calls are given as the source filed them. The call rests on the fitted dose curve; in most records, active means well fitted inhibition curve with a large enough effect; inconclusive means small, poorly fitted or top-dose-only effect; inactive means no such curve, though single readings can be large or run the other way.
Pick from active, inactive when you respond.

Example cases with answers are listed next.
{"COMPOUND_STRING": "Nc1nc(F)nc2c1ncn2[C@@H]1O[C@H](COP(=O)(O)O)[C@@H](O)[C@H]1O", "GROUP_LABEL": "inactive"}
{"COMPOUND_STRING": "COc1cccc([C@@H](C)NCCCc2ccccc2Cl)c1", "GROUP_LABEL": "inactive"}

Hey, what did the test say about Cc1nc(N)sc1-c1ccnc(Nc2ccc(N3CCOCC3)cc2)n1 ?
active

Dear all, I need the recorded test outcome for COc1ccc(-c2nc(N3CCOCC3)c3sc(CN(C)c4ncc(C(=O)NO)cn4)cc3n2)cn1 , thank you.
active

Recorded test call requested for Nc1ncnc2ccccc12
inactive

For this compound, state the assay outcome: CC1(C)Cc2c(sc(NC(=S)NC(=O)c3ccccc3)c2C(=O)O)CO1
inactive

All figures here come from PubChem BioAssay (NCATS).
